Target: UniProtKB P29475
Assay: Inhibition of NOS1
Assignment: determine reported pIC50 for the given molecules.
Remember the convention: pIC50 equals -log10 of concentration in molar.

Item: `O=[N+]([O-])c1ccc2[nH]ncc2c1` | pIC50: 4.33

Item: `Clc1ccc2cn[nH]c2c1` | pIC50: 4.66

Item: `Brc1ccc2cn[nH]c2c1` | pIC50: 5.37

Item: `Ic1cccc2[nH]ncc12` | pIC50: 4.77

Item: `Brc1cccc2[nH]ncc12` | pIC50: 5.62

Item: `Brc1ccc2[nH]ncc2c1` | pIC50: 4.14

Item: `Clc1cccc2[nH]ncc12` | pIC50: 4.36

Item: `Clc1cccc2cn[nH]c12` | pIC50: 5.38

Item: `O=[N+]([O-])c1ccc2c(Cl)n[nH]c2c1` | pIC50: 3.80

Item: `Ic1ccc2[nH]ncc2c1` | pIC50: 4.43

Item: `O=[N+]([O-])c1cccc2c(Br)n[nH]c12` | pIC50: 6.77

Item: `O=[N+]([O-])c1ccc2cn[nH]c2c1` | pIC50: 4.49

Item: `Clc1ccc2[nH]ncc2c1` | pIC50: 4.23

Item: `O=[N+]([O-])c1cccc2[nH]ncc12` | pIC50: 5.51

Item: `Brc1cccc2cn[nH]c12` | pIC50: 4.85

---

Target: Nitric oxide synthase 1 (Homo sapiens, UniProt P29475)
Sequence (P29475 whole entry): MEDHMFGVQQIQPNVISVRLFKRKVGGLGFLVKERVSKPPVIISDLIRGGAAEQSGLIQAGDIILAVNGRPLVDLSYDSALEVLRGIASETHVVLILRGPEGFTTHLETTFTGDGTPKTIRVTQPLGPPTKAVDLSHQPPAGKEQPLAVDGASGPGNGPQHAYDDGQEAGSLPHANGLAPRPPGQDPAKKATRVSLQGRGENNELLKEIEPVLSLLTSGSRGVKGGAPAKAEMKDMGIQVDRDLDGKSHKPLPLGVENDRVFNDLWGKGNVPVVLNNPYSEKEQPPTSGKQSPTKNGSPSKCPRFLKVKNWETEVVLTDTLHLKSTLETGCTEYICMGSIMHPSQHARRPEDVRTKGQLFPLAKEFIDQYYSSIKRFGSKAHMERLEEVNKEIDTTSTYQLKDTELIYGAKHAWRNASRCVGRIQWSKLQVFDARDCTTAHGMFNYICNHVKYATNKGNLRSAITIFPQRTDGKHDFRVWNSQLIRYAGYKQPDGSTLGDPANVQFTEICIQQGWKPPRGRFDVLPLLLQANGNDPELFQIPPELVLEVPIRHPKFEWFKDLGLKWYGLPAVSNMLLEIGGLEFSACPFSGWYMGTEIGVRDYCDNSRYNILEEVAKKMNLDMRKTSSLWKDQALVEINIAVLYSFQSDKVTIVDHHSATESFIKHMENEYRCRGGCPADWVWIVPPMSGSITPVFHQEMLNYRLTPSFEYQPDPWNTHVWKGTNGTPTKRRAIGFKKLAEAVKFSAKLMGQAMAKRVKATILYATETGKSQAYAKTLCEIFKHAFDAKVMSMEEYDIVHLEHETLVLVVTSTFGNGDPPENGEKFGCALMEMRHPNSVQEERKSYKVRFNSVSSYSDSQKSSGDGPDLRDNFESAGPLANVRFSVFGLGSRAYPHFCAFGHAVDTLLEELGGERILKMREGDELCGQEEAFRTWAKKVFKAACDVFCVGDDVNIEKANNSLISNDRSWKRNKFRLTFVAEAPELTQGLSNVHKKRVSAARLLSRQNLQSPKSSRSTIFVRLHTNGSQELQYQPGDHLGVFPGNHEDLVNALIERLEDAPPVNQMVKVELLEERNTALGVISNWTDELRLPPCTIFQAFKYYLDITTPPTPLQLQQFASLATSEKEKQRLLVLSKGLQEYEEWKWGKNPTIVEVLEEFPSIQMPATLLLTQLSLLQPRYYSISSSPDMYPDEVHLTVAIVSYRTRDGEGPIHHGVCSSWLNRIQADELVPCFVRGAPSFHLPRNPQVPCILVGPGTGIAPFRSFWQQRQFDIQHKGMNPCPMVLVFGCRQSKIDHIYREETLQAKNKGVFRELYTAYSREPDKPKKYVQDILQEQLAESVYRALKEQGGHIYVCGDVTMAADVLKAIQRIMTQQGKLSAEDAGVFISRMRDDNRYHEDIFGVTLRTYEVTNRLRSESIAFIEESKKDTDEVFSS
Assay: Inhibition of recombinant NOS1 assessed as citrulline formation
Measurement Kind: pIC50
Remember the convention: pIC50 equals -log10 of concentration in molar.

Item: `CCc1n[nH]c2ccccc12` | pIC50: 3.51

Item: `Nc1cccc2cn[nH]c12` | pIC50: 3.94

Item: `Clc1n[nH]c2ccccc12` | pIC50: 4.00

Item: c1ccc2[nH]ncc2c1 [INDAZOLE] | pIC50: 3.75

---

Molecular target: Nitric oxide synthase, inducible (Rattus norvegicus) (UniProt Q06518)
Sequence (Q06518 whole entry): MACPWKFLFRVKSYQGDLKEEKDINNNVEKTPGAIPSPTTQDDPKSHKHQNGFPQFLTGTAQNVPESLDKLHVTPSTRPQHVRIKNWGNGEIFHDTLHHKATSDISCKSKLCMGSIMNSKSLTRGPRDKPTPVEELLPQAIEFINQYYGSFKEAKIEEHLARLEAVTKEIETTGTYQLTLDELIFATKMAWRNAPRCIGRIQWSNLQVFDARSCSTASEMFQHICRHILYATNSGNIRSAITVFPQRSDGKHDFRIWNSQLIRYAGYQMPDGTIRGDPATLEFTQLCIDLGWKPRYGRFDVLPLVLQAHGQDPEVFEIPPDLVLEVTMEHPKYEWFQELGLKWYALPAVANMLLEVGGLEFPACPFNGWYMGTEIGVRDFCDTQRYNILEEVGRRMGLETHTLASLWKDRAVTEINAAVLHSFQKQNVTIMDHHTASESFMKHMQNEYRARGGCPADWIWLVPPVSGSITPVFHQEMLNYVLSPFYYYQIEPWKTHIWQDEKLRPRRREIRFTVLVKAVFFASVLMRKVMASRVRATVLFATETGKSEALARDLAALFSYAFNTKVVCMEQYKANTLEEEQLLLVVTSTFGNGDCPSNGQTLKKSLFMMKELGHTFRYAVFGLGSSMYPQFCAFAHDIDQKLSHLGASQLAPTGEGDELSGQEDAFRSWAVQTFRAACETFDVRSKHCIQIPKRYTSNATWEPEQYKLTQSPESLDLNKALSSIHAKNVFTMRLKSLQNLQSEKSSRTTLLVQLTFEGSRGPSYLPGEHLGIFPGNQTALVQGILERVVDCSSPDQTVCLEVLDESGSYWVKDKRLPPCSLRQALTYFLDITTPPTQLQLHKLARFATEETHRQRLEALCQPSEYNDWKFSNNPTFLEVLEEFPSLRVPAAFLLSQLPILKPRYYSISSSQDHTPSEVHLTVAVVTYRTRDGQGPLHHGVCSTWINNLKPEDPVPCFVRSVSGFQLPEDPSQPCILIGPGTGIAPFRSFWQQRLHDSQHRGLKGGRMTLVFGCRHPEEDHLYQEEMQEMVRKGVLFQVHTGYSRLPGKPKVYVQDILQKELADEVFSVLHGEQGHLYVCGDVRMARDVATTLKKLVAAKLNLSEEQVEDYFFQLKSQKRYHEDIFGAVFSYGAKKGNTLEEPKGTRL
Experiment: Inhibition of Wistar rat NOS2 assessed as L-[3H]citrulline formation at 1 mM by liquid scintillation counting relative to control in presence of EDTA
Assignment: determine reported inhibition for the given compounds.
The response must be a number in % with no trailing unit.

Item: CC12CCC(C3C=NN=C31)C2(C)C (racemic) | inhibition: 20

Item: `Cc1n[nH]c2c1C(=O)CC(C)(C)C2` | inhibition: 22

Item: `Cc1n[nH]c2c(F)c(F)c(F)c(F)c12` | inhibition: 83

Item: `Cn1ncc2cccc([N+](=O)[O-])c21` | inhibition: 25

Item: `CC1(C)CC(=O)c2cn[nH]c2C1` | inhibition: 2

Item: `Cn1nc(Br)c2cccc([N+](=O)[O-])c21` | inhibition: 10

---

Assignment: determine reported IC50 for the given molecules.
Target: UniProt P29475
Assay: Inhibition of recombinant NOS1 assessed as citrulline formation

Item: `Nc1ccc2[nH]ncc2c1` | IC50: > 1000 µM

Item: `Nc1ccc2cn[nH]c2c1` | IC50: > 1000 µM

Item: `O=c1[nH][nH]c2ccccc12` | IC50: > 1000 µM
